# Target Or System: BCL6-NCOR2(SMRT) corepressor protein-protein interaction (Homo sapiens (Human))
# Assay Summary: NanoBRET cell assay
# Assay type: cell-based
# Condition Context: read-out: NanoBRET cell avg pIC50 (converted)
Measured Endpoint: IC50 (µM)

The cases that follow already have their IC50 on record.
[
  {
    "Molecule": "Cn1c(=O)c2c(c3cc(Nc4nc(-n5ccc(C(F)(F)F)n5)ncc4Cl)ccc31)N[C@@H](C1CC1)CCO2",
    "Target Or System": "BCL6-NCOR2(SMRT) corepressor protein-protein interaction (Homo sapiens (Human))",
    "Measured Endpoint": "IC50",
    "Result": 0.617
  },
  {
    "Molecule": "Cn1c(=O)c2c(c3cc(Nc4cc(C(=O)N5CC(C(F)(F)F)C5)nc(Cl)c4C#N)ccc31)N[C@@H](C1CC1)CCO2",
    "Target Or System": "BCL6-NCOR2(SMRT) corepressor protein-protein interaction (Homo sapiens (Human))",
    "Measured Endpoint": "IC50",
    "Result": 0.646
  },
  {
    "Molecule": "C[C@H]1CCOc2c(c3cc(Nc4nc(N5CCC(C(=O)N(C)C)CC5)ncc4Cl)ccc3n(C)c2=O)N1",
    "Target Or System": "BCL6-NCOR2(SMRT) corepressor protein-protein interaction (Homo sapiens (Human))",
    "Measured Endpoint": "IC50",
    "Result": 1.41
  },
  {
    "Molecule": "Cn1c(=O)c2c(c3cc(Nc4nc(N5C6COCC5CC(O)C6)ncc4Cl)ccc31)N[C@@H](C1CC1)CCO2 (stereo partly shown)",
    "Target Or System": "BCL6-NCOR2(SMRT) corepressor protein-protein interaction (Homo sapiens (Human))",
    "Measured Endpoint": "IC50",
    "Result": 0.0363
  },
  {
    "Molecule": "Cn1c(=O)c2c(c3cc(Nc4ccnc(Cl)c4C#N)ccc31)NC(C1CC1)C(F)(F)CO2 (stereo not shown)",
    "Target Or System": "BCL6-NCOR2(SMRT) corepressor protein-protein interaction (Homo sapiens (Human))",
    "Measured Endpoint": "IC50",
    "Result": 0.0302
  }
]

A. CN(C)C(=O)C1CCN(c2ncc(Cl)c(Nc3ccc4c(c3)c3c(c(=O)n4C)C(=O)OC[C@H](C4CC4)N3)n2)CC1
B. CCC1CCOc2c(c3cc(Nc4ccnc(Cl)c4C#N)ccc3n(C)c2=O)N1 (stereo not shown)
Form: Entry with minimum IC50 (choose one): A / B Indicate which entry you chose by stating its label.
B
(B: 8.71 µM, A: 31.6 µM)
